test system: 299254-011-R-J1-PDC complex spheroid viability; experiment: Anticancer human tumor 299254-011-R-J1-PDC patient-derived melanoma cell line growth inhibition [POLQ]; conditions: curve of first compound; second compound 1 µM;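 also: spheroids exposed to drugs for one week before measurement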
Quantity: IC50

A selection of reference data follows.
- C#Cc1c(F)ccc2cc(O)cc(-c3ncc4c(N5CC6CCC(C5)N6)nc(OCC56CCCN5CC(F)C6)nc4c3F)c12 (stereo not given) + Nc1ccc(C#CCN(C(=O)Cc2ncc(C(F)(F)F)cc2C(F)(F)F)c2ccc(F)cc2)nn1: > 10 µM
- CC[C@@]1(O)C(=O)OCc2c1cc1n(c2=O)Cc2cc3c(CN(C)C)c(O)ccc3nc2-1 + Nc1ccc(C#CCN(C(=O)Cc2ncc(C(F)(F)F)cc2C(F)(F)F)c2ccc(F)cc2)nn1: > 0.1 µM
- CCCS(=O)(=O)Nc1ccc(F)c(C(=O)c2c[nH]c3ncc(-c4ccc(Cl)cc4)cc23)c1F + Nc1ccc(C#CCN(C(=O)Cc2ncc(C(F)(F)F)cc2C(F)(F)F)c2ccc(F)cc2)nn1: 8.98 µM
- CCc1cc2c(N3CCc4c(cc(Cn5ccnc5)cc4-c4cn(C)nc4C(F)(F)F)C3=O)ccnc2c(OC)n1 + Cc1cccc(N(C)C(=O)C2C(O)CCN2c2nc(C)cc(C(F)(F)F)c2C#N)c1: > 10 µM
- COc1ccc([C@@H](O)c2cc(-c3ncnc4cc(N5CCOCC5)ccc34)c(F)cc2Cl)nn1 + COC1C(OC(N)=O)C(O)C(Oc2ccc3c(O)c(NC(=O)c4ccc(O)c(CC=C(C)C)c4)c(=O)oc3c2C)OC1(C)C: > 10 µM
- COc1ccc([C@@H](O)c2cc(-c3ncnc4cc(N5CCOCC5)ccc34)c(F)cc2Cl)nn1 + Cc1cccc(N(C)C(=O)C2C(O)CCN2c2nc(C)cc(C(F)(F)F)c2C#N)c1: 8.8 µM
- CC(C)n1c(=O)n(C)c2cnc3cc(F)c(-c4ccc(OCCCN5CCCCC5)nc4)cc3c21 + Nc1ccc(C#CCN(C(=O)Cc2ncc(C(F)(F)F)cc2C(F)(F)F)c2ccc(F)cc2)nn1: > 10 µM
- CC(=O)O[C@H]1C(=O)[C@@]2(C)[C@H]([C@H](OC(=O)c3ccccc3)[C@]3(O)C[C@H](OC(=O)[C@H](O)[C@@H](NC(=O)c4ccccc4)c4ccccc4)C(C)=C1C3(C)C)[C@]1(OC(C)=O)CO[C@@H]1C[C@@H]2O + Cc1cccc(N(C)C(=O)C2C(O)CCN2c2nc(C)cc(C(F)(F)F)c2C#N)c1: 0.0734 µM
- CCc1cc2c(N3CCc4c(cc(Cn5ccnc5)cc4-c4cn(C)nc4C(F)(F)F)C3=O)ccnc2c(OC)n1 + COC1C(OC(N)=O)C(O)C(Oc2ccc3c(O)c(NC(=O)c4ccc(O)c(CC=C(C)C)c4)c(=O)oc3c2C)OC1(C)C: > 10 µM

Proceed to the following item.
Readout IC50 for COc1cc2cc(C(=O)CCC(=O)O)sc2cc1OC + COC1C(OC(N)=O)C(O)C(Oc2ccc3c(O)c(NC(=O)c4ccc(O)c(CC=C(C)C)c4)c(=O)oc3c2C)OC1(C)C , test system 299254-011-R-J1-PDC complex spheroid viability, was > 10 µM
